test: Single dose PK, phase 1, healthy European men; assay type: in vivo, human; conditions: male, human, plasma, subcutaneous, 2-hour INF 6 mg, geometric mean, read-out: Vz/F
Where a SMILES comes first, the peptide text is derived from it. [ ]: non-standard residue; d: D form. Arg(Me) = CNC(=N)NCCC[C@H](N)C(=O)O; Hyp = O=C(O)[C@@H]1C[C@@H](O)CN1; azaGly = NNC(=O)O
readout name: Vd/F (L)

compound	result
CC(=O)O.CNC(=N)NCCC[C@H](NC(=O)[C@H](CC(C)C)NC(=O)NNC(=O)[C@H](Cc1ccccc1)NC(=O)[C@@H](NC(=O)[C@H](CC(N)=O)NC(=O)[C@@H]1C[C@@H](O)CN1C(=O)[C@@H](Cc1ccc(O)cc1)NC(C)=O)[C@@H](C)O)C(=O)N[C@@H](Cc1c[nH]c2ccccc12)C(N)=O [API-MA] (Ac-[dY][Hyp]NTF[azaGly]L[Arg(Me)]W-NH2)	141
